- Run description: Caspase-3/7 induction in CHO-K1 cells by small molecules, qHTS assay (AID 1346980); further: on the % scale 0 is the no-effect control and ±100 the full control effect; nearly all actives have a fitted effect of over 15% in size
- Condition label: CHO-K1 caspase-3/7 induction, Caspase-Glo luminescence, 17 h; series mostly up to 92.4 µM
- Description: National Center for Advancing Translational Sciences [NCATS] NIH Chemical Genomics Center [NCGC] U.S. Environmental Protection Agency [EPA] National Institutes of Environmental Health Sciences [NIEHS] National Toxicology Program [NTP] Apoptosis is a process of programmed cell death and plays a central role in the development of multicellular organisms. […]
Calls of active or inactive are those of the source. The call rests on the fitted dose curve; in most records, active means well fitted activation curve with a large enough effect in the repeat runs; inconclusive means weak or mixed curves; inactive means flat fitted curve, though single readings scatter.

| Compound | caspase-3/7 activation |
| --- | --- |
| CN(C)c1ccc(N=Nc2ccccc2C(=O)O)cc1 | inactive |
| c1cc(OCC2CO2)cc(OCC2CO2)c1 (stereo not drawn) | inactive |
| C/C=C/CO | inactive |

----------
- Run description: qHTS RealTime-Glo MT Cell Viability Assay in HepG2 cells - 32 hour (AID 1224877); further: nearly all actives have a fitted effect of over 55% in size
- Condition label: RealTime-Glo luminescence; series mostly up to 76.8 µM
Inconclusive results are not listed. The source made the active and inactive calls. The call rests on the fitted dose curve; in most records, active means well fitted cell-killing curve with a large enough effect in the repeat runs; inconclusive means weak or mixed curves; inactive means flat fitted curve, though single readings scatter.
Choose one outcome from this list and give only that: active, inactive

| Molecule | Discrete label |
| --- | --- |
| CC(C)c1ccccc1N | inactive |

### Prompt Dear colleague, could you share the recorded outcome for C=CC(=O)OCCOCC(CC)(COCCOC(=O)C=C)COCCOC(=O)C=C when you have a moment?
### Response active

### Prompt Dear colleague, could you share the recorded outcome for CC=O when you have a moment?
### Response active

----------
- Run description: qHTS assay to identify small molecule agonists of the androgen receptor (AR) signaling pathway in the presence of an antagonist - cell viability counter screen (AID 1259379);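 further: MDA-kb2 human breast cancer cells carrying an MMTV luciferase reporter; on the % scale 0 is the no-effect control and ±100 the full control effect; nearly all actives have a fitted effect of over 25% in size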
- Condition label: MDA-kb2 viability, CellTiter-Fluor, 16 h; series mostly up to 92.4 µM
Inconclusive results are not listed. Active and inactive are the calls of the source. The call rests on the fitted dose curve; in most records, active means well fitted cell-killing curve with a large enough effect in the repeat runs; inconclusive means weak or mixed curves, or effect the other way; inactive means flat fitted curve, though single readings scatter.
Property: activity change, negative = cytotoxicity

| Smiles input | activity change, negative = cytotoxicity |
| --- | --- |
| CCCCCCCCCCCCCCCCCO | 1.97% [at 19 µM] (inactive) |
| COc1cc(C(C)C)c2c(c1)S(=O)(=O)N(COc1cc(=O)n3cccc(OCCN4CCCCC4)c3n1)C2=O | 0.166% [at 19 µM] (inactive) |
| O=S(O)O | 1.09% [at 19 µM] (inactive) |
| S=C(SSSSSSC(=S)N1CCCCC1)N1CCCCC1 | -6.95% [at 19 µM] (inactive) |

### Prompt For the compound O=S(=O)(O)c1cc(S(=O)(=O)O)c2ccc3c(S(=O)(=O)O)cc(S(=O)(=O)O)c4ccc1c2c43 , give its measured activity change, negative = cytotoxicity value.
### Response 1.33% [at 19 µM] (inactive)

### Prompt For the compound C=CC(=C)CC/C=C(\C)CCC=C(C)C , give its measured activity change, negative = cytotoxicity value.
### Response 1.35% [at 19 µM] (inactive)

----------
- Run description: A CellTox Green Cytotoxicity Assay to monitor cytotoxicity in HEK293 cells - 24 hour (AID 1224875); further: nearly all actives have a fitted effect of over 45% in size
- Condition label: CellTox Green fluorescence; series mostly up to 76.8 µM
Inconclusive results are not listed. Calls of active or inactive are those of the source. The call rests on the fitted dose curve; in most records, active means well fitted activation curve with a large enough effect in the repeat runs; inconclusive means weak or mixed curves; inactive means flat fitted curve, though single readings scatter.
Choose one outcome from this list and give only that: 1 for active, 0 for inactive

Use these answered entries as a reference point.
| Compound | Discrete label |
| --- | --- |
| CC1=CCC(=O)O1 | 0 |
| C[n+]1c2cc(N)ccc2cc2ccc(N)cc21 (tested in a mixture with another compound) | 1 |
| Nc1ncnc2c1ncn2[C@@H]1O[C@H](COP(=O)(O)O)[C@@H](O)[C@H]1O | 0 |
| O=c1cccc[nH]1 | 0 |
| CN(C)CCN1CCOCC1 | 0 |

### Prompt Dear colleague, could you share the recorded outcome for CCCCCCCC/C=C\CCCCCCCC(=O)OCCOC(=O)CCCCCCC/C=C\CCCCCCCC when you have a moment?
### Response 0

### Prompt Dear colleague, could you share the recorded outcome for C[Si](C)O[Si](C)C when you have a moment?
### Response 0

### Prompt Dear colleague, could you share the recorded outcome for O=C1NCCN1CCN1CCC(c2cn(-c3ccc(F)cc3)c3ccc(Cl)cc23)CC1 when you have a moment?
### Response 1

### Prompt Dear colleague, could you share the recorded outcome for CCCCCCC(C)Nc1ccc(Nc2ccccc2)cc1 (stereo unspecified) when you have a moment?
### Response 0

### Prompt Dear colleague, could you share the recorded outcome for C[C@@]12C(=O)OC(=O)[C@]1(C)C1CCC2O1 when you have a moment?
### Response 0

### Prompt Dear colleague, could you share the recorded outcome for CSc1ccc2c(c1)N(CCC1CCCCN1C)c1ccccc1S2 (stereo unspecified) when you have a moment?
### Response 1

### Prompt Dear colleague, could you share the recorded outcome for COc1ccccc1C=O when you have a moment?
### Response 0

### Prompt Dear colleague, could you share the recorded outcome for CC1CCCCC1 when you have a moment?
### Response 0

### Prompt Dear colleague, could you share the recorded outcome for CCc1cccc(C)c1 when you have a moment?
### Response 0

### Prompt Dear colleague, could you share the recorded outcome for Clc1ccc(C(Cn2ccnc2)OCc2c(Cl)cccc2Cl)c(Cl)c1 (stereo unspecified) when you have a moment?
### Response 0

### Prompt Dear colleague, could you share the recorded outcome for CC(CN(C)C)CN1c2ccccc2CCc2ccccc21 (stereo unspecified) when you have a moment?
### Response 0

----------
- Run description: qHTS RealTime-Glo MT Cell Viability Assay in HepG2 cells - 40 hour (AID 1224870); further: nearly all actives have a fitted effect of over 50% in size
- Condition label: RealTime-Glo luminescence; series mostly up to 76.8 µM
Results filed as inconclusive are left out. Activity calls are given as the source filed them. Calls follow the shape of the dose curve; as a rule, active = well fitted cell-killing curve with a large enough effect in the repeat runs; inconclusive = weak or mixed curves, or effect the other way; inactive = flat fitted curve, though single readings scatter.
Choose one outcome from this list and give only that: active, inactive

| Compound | Discrete label |
| --- | --- |
| O=C1c2c(O)ccc(O)c2C(=O)c2c(NCCNCCO)ccc(NCCNCCO)c21 | active |
| COCC(=O)O[C@]1(CCN(C)CCCc2nc3ccccc3[nH]2)CCc2cc(F)ccc2[C@@H]1C(C)C | active |
| CC[N+](CC)(CC)Cc1ccccc1 | inactive |
| CC(C)N=C(N)/N=C(\N)Nc1ccc(Cl)cc1 | inactive |
| Cc1occc1SSc1ccoc1C | inactive |

### Prompt Dear colleague, could you share the recorded outcome for C=CCCCCCCC=C when you have a moment?
### Response inactive

### Prompt Dear colleague, could you share the recorded outcome for CO[Si](CCC1CCC2OC2C1)(OC)OC (stereo not drawn) when you have a moment?
### Response inactive

### Prompt Dear colleague, could you share the recorded outcome for CC1(C)C(=O)N(Br)C(=O)N1Br when you have a moment?
### Response inactive

### Prompt Dear colleague, could you share the recorded outcome for NC(=O)c1ccccc1N when you have a moment?
### Response inactive

### Prompt Dear colleague, could you share the recorded outcome for Cc1oc(-c2ccccc2)nc1CCOc1ccc(C[C@H](Nc2ccccc2C(=O)c2ccccc2)C(=O)O)cc1 when you have a moment?
### Response inactive

----------
- Measured on: Luciferin 4-monooxygenase (Photinus pyralis) (UniProt P08659)
- Sequence (P08659 whole entry, looked up): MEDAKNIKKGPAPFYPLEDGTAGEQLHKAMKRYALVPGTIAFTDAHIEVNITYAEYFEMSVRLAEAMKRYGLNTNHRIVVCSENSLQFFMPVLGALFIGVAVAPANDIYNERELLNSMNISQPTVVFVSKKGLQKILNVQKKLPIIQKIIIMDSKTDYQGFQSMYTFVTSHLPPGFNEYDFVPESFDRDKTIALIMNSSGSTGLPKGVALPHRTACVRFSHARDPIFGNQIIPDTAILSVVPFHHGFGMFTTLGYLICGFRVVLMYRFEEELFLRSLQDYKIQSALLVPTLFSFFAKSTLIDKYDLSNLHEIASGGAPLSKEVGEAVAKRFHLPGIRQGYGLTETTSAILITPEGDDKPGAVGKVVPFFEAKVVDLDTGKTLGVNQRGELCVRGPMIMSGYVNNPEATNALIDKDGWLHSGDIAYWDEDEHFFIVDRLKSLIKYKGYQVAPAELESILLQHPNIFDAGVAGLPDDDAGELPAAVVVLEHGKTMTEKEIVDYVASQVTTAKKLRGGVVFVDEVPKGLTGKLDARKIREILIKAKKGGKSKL
- Run description: qHTS assay to identify small molecule inhibitors of firefly luciferase (AID 1224835); further: nearly all actives have a fitted effect of over 25% in size
- Condition label: purified P. pyralis luciferase, luminescence inhibition; series mostly up to 115 µM
Records with an inconclusive call do not appear. The source made the active and inactive calls. Calls come from the whole dose curve; as a rule, active = well fitted inhibition curve with a large enough effect in the repeat runs; inconclusive = weak or mixed curves; inactive = flat fitted curve, though single readings scatter.
Choose one outcome from this list and give only that: Yes (active), No (inactive)

### Prompt Dear colleague, could you share the recorded outcome for CCN(CC)CCOc1ccc(C(O)(Cc2ccc(Cl)cc2)c2ccc(C)cc2)cc1 (stereo not drawn) when you have a moment?
### Response No

### Prompt Dear colleague, could you share the recorded outcome for O=C(O)CCCCCCC(=O)O when you have a moment?
### Response No

### Prompt Dear colleague, could you share the recorded outcome for COc1cc(C(=O)NS(=O)(=O)c2ccccc2C)ccc1Cc1cn(C)c2ccc(NC(=O)OC3CCCC3)cc12 when you have a moment?
### Response Yes

### Prompt Dear colleague, could you share the recorded outcome for C=C(c1ccc(C(=O)O)cc1)c1cc2c(cc1C)C(C)(C)CCC2(C)C when you have a moment?
### Response No

### Prompt Dear colleague, could you share the recorded outcome for C=CC(=O)OCCN(CC)CC when you have a moment?
### Response No

### Prompt Dear colleague, could you share the recorded outcome for CCC(C)(C)c1cc(O)c(C(C)(C)CC)cc1O when you have a moment?
### Response No

### Prompt Dear colleague, could you share the recorded outcome for C1CC(COCC2CO2)CCC1COCC1CO1 (stereo not drawn) when you have a moment?
### Response No

### Prompt Dear colleague, could you share the recorded outcome for CC(C)=CCCC(C)O (stereo not drawn) when you have a moment?
### Response No

### Prompt Dear colleague, could you share the recorded outcome for O=C(O)Cc1ccc(OCCNC[C@H](O)c2ccccc2)cc1 when you have a moment?
### Response No

### Prompt Dear colleague, could you share the recorded outcome for O=C(c1ccccc1)c1cc(Cl)ccc1O when you have a moment?
### Response No

### Prompt Dear colleague, could you share the recorded outcome for Cn1cccc1 when you have a moment?
### Response No

### Prompt Dear colleague, could you share the recorded outcome for Cc1occc1SSc1ccoc1C when you have a moment?
### Response No

### Prompt Dear colleague, could you share the recorded outcome for Cc1cccc(Br)c1 when you have a moment?
### Response No
